Listing of recorded IC50 by entry.
Target: MER (Homo sapiens)
Sequence (Q12866 21-999): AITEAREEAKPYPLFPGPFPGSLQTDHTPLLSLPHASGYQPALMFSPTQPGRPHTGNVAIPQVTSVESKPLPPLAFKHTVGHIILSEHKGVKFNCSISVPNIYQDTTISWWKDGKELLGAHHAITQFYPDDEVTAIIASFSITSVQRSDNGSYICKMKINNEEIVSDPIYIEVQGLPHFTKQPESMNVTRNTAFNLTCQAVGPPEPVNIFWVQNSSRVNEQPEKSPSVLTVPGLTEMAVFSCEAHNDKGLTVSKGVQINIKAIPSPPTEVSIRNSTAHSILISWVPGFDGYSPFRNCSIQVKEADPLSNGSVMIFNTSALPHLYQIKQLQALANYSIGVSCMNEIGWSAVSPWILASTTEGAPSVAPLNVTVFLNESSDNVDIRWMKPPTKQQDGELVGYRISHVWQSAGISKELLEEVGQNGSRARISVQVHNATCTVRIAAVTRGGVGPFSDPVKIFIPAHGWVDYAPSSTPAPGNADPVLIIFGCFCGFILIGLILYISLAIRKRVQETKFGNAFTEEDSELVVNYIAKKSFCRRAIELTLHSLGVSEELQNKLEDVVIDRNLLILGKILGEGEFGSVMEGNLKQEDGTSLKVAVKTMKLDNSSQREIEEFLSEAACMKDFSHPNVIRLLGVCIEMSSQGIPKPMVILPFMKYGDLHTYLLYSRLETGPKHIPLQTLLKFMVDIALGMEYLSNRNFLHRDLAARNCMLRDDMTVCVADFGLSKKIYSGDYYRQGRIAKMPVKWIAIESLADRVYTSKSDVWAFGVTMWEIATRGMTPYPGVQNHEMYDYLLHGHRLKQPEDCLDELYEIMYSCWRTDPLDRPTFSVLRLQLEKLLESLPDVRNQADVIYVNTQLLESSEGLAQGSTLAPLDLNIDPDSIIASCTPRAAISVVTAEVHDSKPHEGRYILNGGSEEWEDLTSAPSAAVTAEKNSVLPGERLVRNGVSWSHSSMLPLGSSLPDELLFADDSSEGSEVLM
Assay: Enzymatic kinase assay (ADP-GLO), MER
Type: biochemical
Conditions: 10 μM ATP, poly (Glu4, Tyr1) substrate, 60 min room temperature, luminescence
Readout type: IC50

>  <Item smiles>
COCCONC(=O)C#Cc1c(Oc2ccc(NC(=O)c3ccnn(-c4ccc(F)cc4)c3=O)cc2F)ccnc1N

>  <Measurement target>
MER (Homo sapiens)

>  <Readout type>
IC50

>  <Result>
< 1000 nM

$$$$
>  <Item smiles>
Nc1nccc(Oc2ccc(NC(=O)c3ccnn(-c4ccc(F)cc4)c3=O)cc2F)c1C#CC(=O)N1CCNCC1

>  <Measurement target>
MER (Homo sapiens)

>  <Readout type>
IC50

>  <Result>
< 100 nM

$$$$
>  <Item smiles>
COCCN1CCC(C#Cc2c(Oc3ccc(NC(=O)c4ccnn(-c5ccc(F)cc5)c4=O)cc3F)ccnc2N)CC1

>  <Measurement target>
MER (Homo sapiens)

>  <Readout type>
IC50

>  <Result>
< 10 nM

$$$$
>  <Item smiles>
Nc1nccc(Oc2ccc(NC(=O)c3ccnn(-c4ccc(F)cc4)c3=O)cc2F)c1/C=C/C(=O)N1CCNCC1

>  <Measurement target>
MER (Homo sapiens)

>  <Readout type>
IC50

>  <Result>
< 1000 nM

$$$$
>  <Item smiles>
COC1CCN(C(=O)C#Cc2c(Oc3ccc(NC(=O)c4ccnn(-c5ccc(F)cc5)c4=O)cc3F)ccnc2N)CC1

>  <Measurement target>
MER (Homo sapiens)

>  <Readout type>
IC50

>  <Result>
< 1000 nM

$$$$
>  <Item smiles>
Nc1nccc(Oc2ccc(NC(=O)c3cccn(-c4ccc(F)cc4)c3=O)cc2F)c1C#CC(=O)N1CCNCC1

>  <Measurement target>
MER (Homo sapiens)

>  <Readout type>
IC50

>  <Result>
< 100 nM

$$$$
>  <Item smiles>
Nc1nccc(Oc2ccc(NC(=O)c3ccnn(-c4ccc(F)cc4)c3=O)cc2F)c1Cl

>  <Measurement target>
MER (Homo sapiens)

>  <Readout type>
IC50

>  <Result>
< 1000 nM

$$$$
